What IC50 was measured for each of the following?
# study system: UniProtKB P00390
# Sequence (P00390 44-522): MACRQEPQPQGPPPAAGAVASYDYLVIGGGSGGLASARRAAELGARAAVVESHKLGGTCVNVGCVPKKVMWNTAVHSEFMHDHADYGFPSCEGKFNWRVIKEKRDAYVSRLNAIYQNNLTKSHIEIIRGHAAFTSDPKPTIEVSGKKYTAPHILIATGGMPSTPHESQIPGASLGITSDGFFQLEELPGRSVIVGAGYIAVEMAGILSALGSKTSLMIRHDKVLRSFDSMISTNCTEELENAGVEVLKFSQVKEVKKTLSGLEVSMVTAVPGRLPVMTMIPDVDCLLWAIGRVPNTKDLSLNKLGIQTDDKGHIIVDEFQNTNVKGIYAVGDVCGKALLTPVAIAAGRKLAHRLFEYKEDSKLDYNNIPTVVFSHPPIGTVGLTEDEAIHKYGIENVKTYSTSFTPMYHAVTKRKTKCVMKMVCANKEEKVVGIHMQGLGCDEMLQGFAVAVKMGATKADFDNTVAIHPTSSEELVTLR
# experiment notes: Inhibition of recombinant GR (GSSG assay)
# Assay type: biochemical
# run parameters: Biological Example 4; assays of Biological Example 1

Take a look at these entries with their results.
# compound, IC50
data = [
    ("O=C1C=CC2C3C(=O)N(c4ccccc4)C(=O)C3C1N2Cc1cccc(Br)c1 (centres unmarked) [Example 34]", "> 100 µM"),
    ("O=C1C=C[C@H]2[C@@H]3C(=O)N(c4ccccc4)C(=O)[C@@H]3[C@@H]1N2Cc1ccc(F)cc1Cl (relative stereo) [Example 18]", "22 µM"),
    ("CCc1ccc(N2C(=O)[C@@H]3[C@H](C2=O)[C@H]2C(=O)C=C[C@@H]3N2Cc2cccc(C)c2)cc1 (relative stereo) [Example 59]", "> 100 µM"),
]

Hey, can you go through the list below and give me IC50 for every item?
1. CCN1C(=O)C2C(C1=O)[C@@H]1C=CC(=O)[C@H]2N1Cc1ccccc1 (relative stereo) [Example 46]
2. O=C1C=C[C@H]2C3C(=O)N(c4ccccc4)C(=O)C3[C@@H]1N2Cc1cccc(F)c1F (mixture of isomers) [Example 30]
3. O=C1C=C[C@H]2[C@@H]3C(=O)N(c4ccccc4)C(=O)[C@@H]3[C@@H]1N2Cc1cc(F)ccc1F (relative stereo) [Example 27]
4. Cc1cc(C)cc(CN2C3C=CC(=O)C2C2C(=O)N(c4ccccc4)C(=O)C23)c1 (centres unmarked) [Example 33]
5. CC1=CC(=O)[C@@H]2C3C(=O)N(C4CCCCC4)C(=O)C3[C@H]1N2Cc1ccccc1 (some centres unmarked) [Example 13]
6. Cc1cccc(CN2[C@@H]3C(=O)C=C[C@H]2C2C(=O)N(c4cccc(N5CCOCC5)c4)C(=O)C23)c1 (some centres unmarked) [Example 69]
7. O=C1C=C[C@H]2[C@@H]3C(=O)N(c4ccccc4)C(=O)[C@@H]3[C@@H]1N2CC1CC1 (relative stereo) [Example 25]

[A]
["> 100 µM", "25.2 µM", "> 100 µM", "> 100 µM", "> 100 µM", "> 100 µM", "> 100 µM"]

Please give IC50 for each item listed below.
1. O=C1C=C[C@H]2[C@@H]3C(=O)N(c4ccccc4)C(=O)[C@@H]3[C@@H]1N2Cc1ccc(-c2ccccc2)cc1 (relative stereo) [Example 2]
2. CC(C)(C)N1C(=O)C2C(C1=O)[C@@H]1C=CC(=O)[C@H]2N1Cc1ccccc1 (mixture of isomers) [Example 16]
3. O=C1C=C[C@H]2[C@@H]3C(=O)N(c4ccccc4)C(=O)[C@@H]3[C@@H]1N2Cc1cccc(F)c1 (relative stereo) [Example 29]
4. CCN1C(=O)[C@@H]2[C@H](C1=O)[C@H]1C(=O)C=C[C@@H]2N1Cc1cccc(C)c1 (relative stereo) [Example 49]

[A]
1: 65.2 µM; 2: > 100 µM; 3: > 100 µM; 4: > 100 µM

Data credit: patent US10881653B2
